Assay: activity coefficient (dimensionless); of the first substance listed, at infinite dilution; xn = mol fraction of the nth substance listed
Conditions: 328.15 K; 101 kPa; Liquid; Chromatography; x1 = 0
Catalogue of activity coefficient values
endpoint.name: activity coefficient

INSERT INTO assay_data (compound, data_value) VALUES
  ('CCCOCCC [dipropyl ether] + COCC[N+]1(C)CCCCC1.O=S(=O)([N-]S(=O)(=O)C(F)(F)F)C(F)(F)F', 6.28),
  ('CCC(=O)OC [methyl propanoate] + COCC[N+]1(C)CCCCC1.O=S(=O)([N-]S(=O)(=O)C(F)(F)F)C(F)(F)F', 0.904),
  ('C=Cc1ccccc1 [styrene] + COCC[N+]1(C)CCCCC1.O=S(=O)([N-]S(=O)(=O)C(F)(F)F)C(F)(F)F', 1.1),
  ('CCCC=O [butanal] + COCC[N+]1(C)CCCCC1.O=S(=O)([N-]S(=O)(=O)C(F)(F)F)C(F)(F)F', 0.791),
  ('CCC(C)(C)C [2,2-dimethylbutane] + COCC[N+]1(C)CCCCC1.O=S(=O)([N-]S(=O)(=O)C(F)(F)F)C(F)(F)F', 12.9),
  ('Cc1ccccc1C [1,2-dimethylbenzene] + COCC[N+]1(C)CCCCC1.O=S(=O)([N-]S(=O)(=O)C(F)(F)F)C(F)(F)F', 1.68),
  ('CCC(C)(C)OC [2-methoxy-2-methylbutane] + COCC[N+]1(C)CCCCC1.O=S(=O)([N-]S(=O)(=O)C(F)(F)F)C(F)(F)F', 3.74),
  ('CC(C)=O [acetone] + COCC[N+]1(C)CCCCC1.O=S(=O)([N-]S(=O)(=O)C(F)(F)F)C(F)(F)F', 0.471),
  ('CCCCO [butan-1-ol] + COCC[N+]1(C)CCCCC1.O=S(=O)([N-]S(=O)(=O)C(F)(F)F)C(F)(F)F', 2.45),
  ('CCC[N+](=O)[O-] [1-nitropropane] + COCC[N+]1(C)CCCCC1.O=S(=O)([N-]S(=O)(=O)C(F)(F)F)C(F)(F)F', 0.725),
  ('c1ccsc1 [thiophene] + COCC[N+]1(C)CCCCC1.O=S(=O)([N-]S(=O)(=O)C(F)(F)F)C(F)(F)F', 0.798),
  ('CCCCC [pentane] + COCC[N+]1(C)CCCCC1.O=S(=O)([N-]S(=O)(=O)C(F)(F)F)C(F)(F)F', 11.3),
  ('C=CCCCCCCCC [1-decene] + COCC[N+]1(C)CCCCC1.O=S(=O)([N-]S(=O)(=O)C(F)(F)F)C(F)(F)F', 33.7),
  ('CCCCCCC [heptane] + COCC[N+]1(C)CCCCC1.O=S(=O)([N-]S(=O)(=O)C(F)(F)F)C(F)(F)F', 22.9);

====

Test: activity coefficient (dimensionless); of the first substance listed, at infinite dilution; xn = mol fraction of the nth substance listed
Conditions: 358.15 K; 101 kPa; Liquid; Chromatography; x1 = 0
Mark YES only when activity coefficient stays strictly below 1. Values equal to the cut-off are NO.

INSERT INTO assay_data (compound, class_name) VALUES
  ('C=Cc1ccccc1 [styrene] + COCC[N+]1(C)CCCCC1.O=S(=O)([N-]S(=O)(=O)C(F)(F)F)C(F)(F)F', 'NO'),
  ('C=CCCCCC [1-heptene] + COCC[N+]1(C)CCCCC1.O=S(=O)([N-]S(=O)(=O)C(F)(F)F)C(F)(F)F', 'NO'),
  ('CC(C)OC(C)C [diisopropyl ether] + COCC[N+]1(C)CCCCC1.O=S(=O)([N-]S(=O)(=O)C(F)(F)F)C(F)(F)F', 'NO'),
  ('c1ccncc1 [pyridine] + COCC[N+]1(C)CCCCC1.O=S(=O)([N-]S(=O)(=O)C(F)(F)F)C(F)(F)F', 'YES'),
  ('c1ccccc1 [benzene] + COCC[N+]1(C)CCCCC1.O=S(=O)([N-]S(=O)(=O)C(F)(F)F)C(F)(F)F', 'YES'),
  ('CCCC(=O)OC [methyl butanoate] + COCC[N+]1(C)CCCCC1.O=S(=O)([N-]S(=O)(=O)C(F)(F)F)C(F)(F)F', 'NO');

====

Assay: activity coefficient (dimensionless); of the first substance listed, at infinite dilution; xn = mol fraction of the nth substance listed
Conditions: 348.15 K; 101 kPa; Liquid; Chromatography; x1 = 0
Mark Fulfilled only when activity coefficient stays strictly below 2. Values equal to the cut-off are Not fulfilled.

INSERT INTO results (compound, class_name) VALUES
  ('C#CCCCCC [1-heptyne] + COCC[N+]1(C)CCCCC1.O=S(=O)([N-]S(=O)(=O)C(F)(F)F)C(F)(F)F', 'Not fulfilled'),
  ('CC(C)(C)O [2-methylpropan-2-ol] + COCC[N+]1(C)CCCCC1.O=S(=O)([N-]S(=O)(=O)C(F)(F)F)C(F)(F)F', 'Fulfilled'),
  ('C1CCCCCCC1 [cyclooctane] + COCC[N+]1(C)CCCCC1.O=S(=O)([N-]S(=O)(=O)C(F)(F)F)C(F)(F)F', 'Not fulfilled'),
  ('CCC[N+](=O)[O-] [1-nitropropane] + COCC[N+]1(C)CCCCC1.O=S(=O)([N-]S(=O)(=O)C(F)(F)F)C(F)(F)F', 'Fulfilled'),
  ('CCCO [propan-1-ol] + COCC[N+]1(C)CCCCC1.O=S(=O)([N-]S(=O)(=O)C(F)(F)F)C(F)(F)F', 'Fulfilled'),
  ('C1CCCCCC1 [cycloheptane] + COCC[N+]1(C)CCCCC1.O=S(=O)([N-]S(=O)(=O)C(F)(F)F)C(F)(F)F', 'Not fulfilled'),
  ('CCCCCCCC [octane] + COCC[N+]1(C)CCCCC1.O=S(=O)([N-]S(=O)(=O)C(F)(F)F)C(F)(F)F', 'Not fulfilled'),
  ('C1=CCCCC1 [cyclohexene] + COCC[N+]1(C)CCCCC1.O=S(=O)([N-]S(=O)(=O)C(F)(F)F)C(F)(F)F', 'Not fulfilled'),
  ('CCc1ccccc1 [ethylbenzene] + COCC[N+]1(C)CCCCC1.O=S(=O)([N-]S(=O)(=O)C(F)(F)F)C(F)(F)F', 'Fulfilled'),
  ('COC(C)=O [methyl ethanoate] + COCC[N+]1(C)CCCCC1.O=S(=O)([N-]S(=O)(=O)C(F)(F)F)C(F)(F)F', 'Fulfilled'),
  ('Cc1ccccc1C [1,2-dimethylbenzene] + COCC[N+]1(C)CCCCC1.O=S(=O)([N-]S(=O)(=O)C(F)(F)F)C(F)(F)F', 'Fulfilled'),
  ('C1CCCC1 [cyclopentane] + COCC[N+]1(C)CCCCC1.O=S(=O)([N-]S(=O)(=O)C(F)(F)F)C(F)(F)F', 'Not fulfilled'),
  ('CCCC=O [butanal] + COCC[N+]1(C)CCCCC1.O=S(=O)([N-]S(=O)(=O)C(F)(F)F)C(F)(F)F', 'Fulfilled'),
  ('Cc1cccc(C)c1 [1,3-dimethylbenzene] + COCC[N+]1(C)CCCCC1.O=S(=O)([N-]S(=O)(=O)C(F)(F)F)C(F)(F)F', 'Fulfilled'),
  ('C=CCCCC [hex-1-ene] + COCC[N+]1(C)CCCCC1.O=S(=O)([N-]S(=O)(=O)C(F)(F)F)C(F)(F)F', 'Not fulfilled'),
  ('C=CCCCCCC [oct-1-ene] + COCC[N+]1(C)CCCCC1.O=S(=O)([N-]S(=O)(=O)C(F)(F)F)C(F)(F)F', 'Not fulfilled'),
  ('C=Cc1ccccc1 [styrene] + COCC[N+]1(C)CCCCC1.O=S(=O)([N-]S(=O)(=O)C(F)(F)F)C(F)(F)F', 'Fulfilled'),
  ('C=CCCCCCCCC [1-decene] + COCC[N+]1(C)CCCCC1.O=S(=O)([N-]S(=O)(=O)C(F)(F)F)C(F)(F)F', 'Not fulfilled'),
  ('CC(C)CC(C)(C)C [2,2,4-trimethylpentane] + COCC[N+]1(C)CCCCC1.O=S(=O)([N-]S(=O)(=O)C(F)(F)F)C(F)(F)F', 'Not fulfilled'),
  ('CCC(C)O (stereo not drawn) [butan-2-ol] + COCC[N+]1(C)CCCCC1.O=S(=O)([N-]S(=O)(=O)C(F)(F)F)C(F)(F)F', 'Fulfilled'),
  ('CCC(C)CC [3-methylpentane] + COCC[N+]1(C)CCCCC1.O=S(=O)([N-]S(=O)(=O)C(F)(F)F)C(F)(F)F', 'Not fulfilled'),
  ('C=C(C)c1ccccc1 [(1-methylethenyl)benzene] + COCC[N+]1(C)CCCCC1.O=S(=O)([N-]S(=O)(=O)C(F)(F)F)C(F)(F)F', 'Fulfilled'),
  ('CCCOCCC [dipropyl ether] + COCC[N+]1(C)CCCCC1.O=S(=O)([N-]S(=O)(=O)C(F)(F)F)C(F)(F)F', 'Not fulfilled'),
  ('c1ccsc1 [thiophene] + COCC[N+]1(C)CCCCC1.O=S(=O)([N-]S(=O)(=O)C(F)(F)F)C(F)(F)F', 'Fulfilled'),
  ('CCOCC [diethyl ether] + COCC[N+]1(C)CCCCC1.O=S(=O)([N-]S(=O)(=O)C(F)(F)F)C(F)(F)F', 'Not fulfilled'),
  ('CCCC(=O)OC [methyl butanoate] + COCC[N+]1(C)CCCCC1.O=S(=O)([N-]S(=O)(=O)C(F)(F)F)C(F)(F)F', 'Fulfilled'),
  ('CC(C)O [propan-2-ol] + COCC[N+]1(C)CCCCC1.O=S(=O)([N-]S(=O)(=O)C(F)(F)F)C(F)(F)F', 'Fulfilled'),
  ('CCCCC [pentane] + COCC[N+]1(C)CCCCC1.O=S(=O)([N-]S(=O)(=O)C(F)(F)F)C(F)(F)F', 'Not fulfilled');
